Sourced from ChEMBL document CHEMBL4813932

# Tested on: Pseudomonas aeruginosa
# test: microbe, parasite or virus in culture
# Format: functional
# experimental parameters: ATCC 50071, time 48 hrs
# Description: Antibiofilm activity against Pseudomonas aeruginosa ATCC 50071 assessed as inhibition of bacterial metabolism within the biofilm at 4 ug/ml measured after 48 hrs by MTT assay relative to control
measurement label: inhibition at 4 µg/mL

molecule: CC1(C)C[C@@H](O)C[C@](C)(O)/C1=C\C(=O)O
recorded measurement: 29.2%
--
molecule: COc1c(C(C)C)cc2c(c1O)[C@]1(C(=O)O)CCCC(C)(C)[C@@H]1CC2 (relative stereo)
recorded measurement: 27.2%
--
molecule: CC(C)c1cc2c(c(O)c1O)C1=C(CC2)C(C)(C)CCC1=O
recorded measurement: 0%
--
molecule: CC(C)c1cc2c(c(O)c1O)[C@@]1(C(=O)O)CCCC(C)(C)[C@@H]1CC2
recorded measurement: 27.7%
--
molecule: CC(C)c1cc2c(cc1O)[C@@]1(C)CCCC(C)(C)[C@@H]1CC2
recorded measurement: 20.3%
--
molecule: CO[C@@H]1c2cc(C(C)C)c(O)c(O)c2[C@@]23CCCC(C)(C)[C@@H]2[C@@H]1OC3=O
recorded measurement: 0%
--
molecule: CC(C)c1cc2c(c(O)c1O)[C@@]13CCCC(C)(C)[C@@H]1[C@@H](O)[C@@H]2OC3=O
recorded measurement: 0%
--
molecule: C=C(C)[C@@H]1CC[C@]2(C(=O)O)CC[C@]3(C)[C@H](CC[C@@H]4[C@@]5(C)CC[C@H](O)C(C)(C)[C@@H]5CC[C@]43C)[C@@H]12
recorded measurement: 31.9%
--
molecule: CC(C)c1cc2c(c(O)c1O)[C@@]13CCCC(C)(C)[C@@H]1[C@H](OC3=O)[C@H]2O
recorded measurement: 3.7%
--
molecule: CC1(C)C[C@H]2[C@H]1CC[C@]1(C)C[C@]2(O)CC[C@@H]1O
recorded measurement: 0%
--
molecule: CC(C)c1cc2c(c(O)c1O)C[C@@]1(O)[C@@H](O)CCC(C)(C)[C@@H]1CC2
recorded measurement: 0%
--
molecule: CC(=O)O[C@H]1CC(C)(C)[C@@H]2CC[C@]3(C)C[C@]12CC[C@H]3O
recorded measurement: 30.4%
--
molecule: CC(C)c1cc2c(c(O)c1O)[C@@]13CCCC(C)(C)[C@@H]1C[C@@H]2OC3=O
recorded measurement: 0%

---

# System: Escherichia coli
# test: microbe, parasite or virus in culture
# Format: functional
# experimental parameters: DSM 8579, time 48 hrs
# Description: Antibiofilm activity against Escherichia coli DSM 8579 assessed as inhibition of biofilm formation at 80 ug/ml measured after 48 hrs by crystal violet staining based assay relative to control
Listed next: entries and their corresponding inhibition at 80 µg/mL.
measurement label: inhibition at 80 µg/mL (%)

molecule: CC1(C)C[C@H](O)[C@]23CC[C@@H](O)[C@](C)(CC[C@@H]12)C3
measurement label: inhibition at 80 µg/mL
recorded measurement: 45.4
--
molecule: C=CC(C)(O)C/C=C/C(C)(C)O (stereo not drawn)
measurement label: inhibition at 80 µg/mL
recorded measurement: 78.6
--
molecule: CC(C)c1cc2c(c(O)c1O)[C@@]13CCCC(C)(C)[C@@H]1[C@@H](O)[C@@H]2OC3=O
measurement label: inhibition at 80 µg/mL
recorded measurement: 53
--
molecule: CC1(C)C[C@H]2[C@H]1CC[C@]1(C)C[C@]2(O)CC[C@@H]1O
measurement label: inhibition at 80 µg/mL
recorded measurement: 71.9
--
molecule: CC(C)c1cc2c(c(O)c1O)C1=C(CC2)C(C)(C)CCC1=O
measurement label: inhibition at 80 µg/mL
recorded measurement: 45.5
--
molecule: CO[C@H]1c2cc(C(C)C)c(O)c(O)c2[C@@]23CCCC(C)(C)[C@@H]2[C@@H]1OC3=O
measurement label: inhibition at 80 µg/mL
recorded measurement: 47.4
--
molecule: CC(C)c1cc2c(c(O)c1O)[C@@]13CCCC(C)(C)[C@@H]1[C@H](OC3=O)[C@@H]2O [EPIROSMANOL]
measurement label: inhibition at 80 µg/mL
recorded measurement: 11.3
--
molecule: CC(C)c1cc2c(c(O)c1O)[C@@]13CCCC(C)(C)[C@@H]1[C@H](OC3=O)[C@H]2O
measurement label: inhibition at 80 µg/mL
recorded measurement: 0
--
molecule: CC1(C)C[C@@H](O)C[C@](C)(O)/C1=C\C(=O)O
measurement label: inhibition at 80 µg/mL
recorded measurement: 50.3
--
molecule: CC(C)c1cc2c(c(O)c1O)[C@@]1(C(=O)O)CCCC(C)(C)[C@@H]1CC2
measurement label: inhibition at 80 µg/mL
recorded measurement: 78.5
--
molecule: CO[C@@H]1c2cc(C(C)C)c(O)c(O)c2[C@@]23CCCC(C)(C)[C@@H]2[C@@H]1OC3=O
measurement label: inhibition at 80 µg/mL
recorded measurement: 0
--
molecule: CCCCCC
measurement label: inhibition at 80 µg/mL
recorded measurement: 95.8
--
molecule: C=C(C)[C@@H]1CC[C@]2(C(=O)O)CC[C@]3(C)[C@H](CC[C@@H]4[C@@]5(C)CC[C@H](O)C(C)(C)[C@@H]5CC[C@]43C)[C@@H]12
measurement label: inhibition at 80 µg/mL
recorded measurement: 54.4

---

# System: Pectobacterium carotovorum
# test: microbe, parasite or virus in culture
# Assay type: functional
# experimental parameters: ATCC 15713, time 48 hrs
# Description: Antibiofilm activity against Pectobacterium carotovorum ATCC 15713 assessed as inhibition of bacterial metabolism within the biofilm at 8 ug/ml measured after 48 hrs by MTT assay relative to control
compounds and their reported inhibition at 8 µg/mL

compound: CC(C)c1cc2c(c(O)c1O)[C@@]13CCCC(C)(C)[C@@H]1[C@@H](O)[C@@H]2OC3=O
units symbol: %
inhibition at 8 µg/mL: 62.8
//
compound: CCCCCC
units symbol: %
inhibition at 8 µg/mL: 49.4
//
compound: CC(C)c1cc2c(c(O)c1O)C[C@@]1(O)[C@@H](O)CCC(C)(C)[C@@H]1CC2
units symbol: %
inhibition at 8 µg/mL: 1.5
//
compound: CC(C)c1cc2c(c(O)c1O)[C@@]13CCCC(C)(C)[C@@H]1[C@H](OC3=O)[C@@H]2O [EPIROSMANOL]
units symbol: %
inhibition at 8 µg/mL: 56.3
//
compound: CC(C)c1cc2c(c(O)c1O)[C@@]13CCCC(C)(C)[C@@H]1C[C@@H]2OC3=O
units symbol: %
inhibition at 8 µg/mL: 69.1
//
compound: CC(C)c1cc2c(c(O)c1O)[C@@]13CCCC(C)(C)[C@@H]1[C@H](OC3=O)[C@H]2O
units symbol: %
inhibition at 8 µg/mL: 46.6

---

# Test system: Pseudomonas aeruginosa
# test: microbe, parasite or virus in culture
# Type: functional
# experimental parameters: ATCC 50071, time 48 hrs
# Description: Antibiofilm activity against Pseudomonas aeruginosa ATCC 50071 assessed as inhibition of biofilm formation at 8 ug/ml measured after 48 hrs by crystal violet staining based assay relative to control

molecule: CC(C)c1cc2c(c(O)c1O)[C@@]13CCCC(C)(C)[C@@H]1[C@H](OC3=O)[C@H]2O [ROSMANOL]
inhibition at 8 µg/mL / %: 73.1
//
molecule: CC(C)c1cc2c(c(O)c1O)[C@@]1(C(=O)O)CCCC(C)(C)[C@@H]1CC2 [CARNOSIC ACID]
inhibition at 8 µg/mL / %: 83
//
molecule: CC(=O)O[C@H]1CC(C)(C)[C@@H]2CC[C@]3(C)C[C@]12CC[C@H]3O
inhibition at 8 µg/mL / %: 45.9
//
molecule: C=CC(C)(O)C/C=C/C(C)(C)O (configuration not stated)
inhibition at 8 µg/mL / %: 84.7
//
molecule: CCCCCC [HEXANE]
inhibition at 8 µg/mL / %: 97.9
//
molecule: CC1(C)C[C@H]2[C@H]1CC[C@]1(C)C[C@]2(O)CC[C@@H]1O
inhibition at 8 µg/mL / %: 53.6
//
molecule: COc1c(C(C)C)cc2c(c1O)[C@@]1(C(=O)O)CCCC(C)(C)[C@@H]1CC2
inhibition at 8 µg/mL / %: 81.2
